test system: E. coli; experiment: AK assay 384-well format, Prestwick library screening; assay type: cell-based, Escherichia coli; details: Escherichia coli, 3 h; planktonic E. coli; 50 μM final drug concentration; cutoff for positive-scoring molecules 3-fold increase; read-out: AK-based Prestwick Library Screening Results, E. coli (increase in extracellular AK activity)
Structures can show the parent of a compound that is named as a salt.
# key: entry, value: fold induction at 50 µM

CC(=O)OCC(=O)NCCCOc1cccc(CN2CCCCC2)c1 [Roxatidine Acetate HCl]    0.8
COc1cc(OC)c(C(=O)CCCN2CCCC2)c(OC)c1 [Buflomedil hydrochloride]    0.8
CCCC1O[C@@H]2C[C@H]3[C@@H]4CCC5=CC(=O)C=C[C@]5(C)[C@H]4[C@@H](O)C[C@]3(C)[C@]2(C(=O)CO)O1 (stereo partly shown) [Budesonide]    0.9

Shifting focus to the compound that follows.
## Input # lookup: E. coli fold induction at 50 µM, key = C[C@@H]1CC[C@H]2[C@@H](C)C(=O)O[C@@H]3O[C@@]4(C)CC[C@@H]1[C@]32OO4 [Artemisinin]
## Output 0.5

Every entry's value here was drawn from patent US10004701B2.
